Assay: Pharmacokinetic study in male Sprague-Dawley rats (IV and PO), plasma
Format: in vivo, rat
Settings: male, Sprague-Dawley; rat plasma, IV, 3 mg/kg
Procedure: Pharmacokinetic studies were conducted to estimate plasma concentrations obtained after oral gavage (PO) and intravenous (IV) single administration of compounds administered to male Sprague-Dawley rats. […] The in-vivo study plasma samples were analyzed using Ultra Performance Liquid Chromatography (UPLC) with tandem mass spectrometry (MS/MS) detection in multiple reaction monitoring (MRM) mode. […]
READOUT NAME: AUC(0-t) (ng·h/mL)
Give bare numbers, in ng·h/mL.

CN(C)C(=O)Cn1ccc2nc(N[C@H]3CC[C@@H](Oc4nc(N5CCOCC5)cc5ncccc45)CC3)ncc21 = 371
CN1CCN(CCOc2cnc(N[C@H]3CC[C@@H](Oc4nc(N5CCOCC5)cc5ncccc45)CC3)nc2)CC1 = 488

Could you now consider this next molecule?
Exercise: Please give the measured AUC(0-t) for this molecule: O=C(COc1cnc(N[C@H]2CC[C@@H](Oc3nc(N4CCOCC4)cc4ncccc34)CC2)nc1)N1CCOCC1
Solution: 912

----------
Test: Pharmacokinetic study in male Sprague-Dawley rats (IV and PO), plasma
Assay type: in vivo, rat
Conditions: male, Sprague-Dawley; rat plasma, PO, 10 mg/kg
READOUT NAME: half-life

Known half-life results, listed for orientation:
CN1CCN(CCOc2cnc(N[C@H]3CC[C@@H](Oc4nc(N5CCOCC5)cc5ncccc45)CC3)nc2)CC1 [Compound 69] = 3.23 h
O=C(COc1cnc(N[C@H]2CC[C@@H](Oc3nc(N4CCOCC4)cc4ncccc34)CC2)nc1)N1CCOCC1 [Compound 61] = 2.64 h

Could you now consider this next molecule?
Exercise: Please give the measured half-life for this molecule: CN(C)C(=O)Cn1ccc2nc(N[C@H]3CC[C@@H](Oc4nc(N5CCOCC5)cc5ncccc45)CC3)ncc21 [Compound 86]
Solution: 2.39 h

----------
Assay: Pharmacokinetic study in male Sprague-Dawley rats (IV and PO), plasma
Format: in vivo, rat
Conditions: male, Sprague-Dawley; rat plasma, PO, 3 mg/kg
READOUT NAME: Cmax at 5 min (ng/mL)
Answers are plain numbers, in ng/mL.

Known Cmax at 5 min results, listed for orientation:
O=C(COc1cnc(N[C@H]2CC[C@@H](Oc3nc(N4CCOCC4)cc4ncccc34)CC2)nc1)N1CCOCC1 = 87.5
CN1CCN(CCOc2cnc(N[C@H]3CC[C@@H](Oc4nc(N5CCOCC5)cc5ncccc45)CC3)nc2)CC1 = 27.2

Could you now consider this next compound?
Exercise: Please give the measured Cmax at 5 min for this compound: CN(C)C(=O)Cn1ccc2nc(N[C@H]3CC[C@@H](Oc4nc(N5CCOCC5)cc5ncccc45)CC3)ncc21
Solution: 28.2

----------
Kindly supply the reported AUC(0-t) values for the records listed here.
Assay: Pharmacokinetic study in male Sprague-Dawley rats (IV and PO), plasma
Type: in vivo, rat
Details: male, Sprague-Dawley; rat plasma, PO, 3 mg/kg
Give bare numbers, in µg·h/mL.

Known AUC(0-t) results, listed for orientation:
O=C(COc1cnc(N[C@H]2CC[C@@H](Oc3nc(N4CCOCC4)cc4ncccc34)CC2)nc1)N1CCOCC1 [Compound 61] = 0.241
CN1CCN(CCOc2cnc(N[C@H]3CC[C@@H](Oc4nc(N5CCOCC5)cc5ncccc45)CC3)nc2)CC1 [Compound 69] = 0.305

Could you now consider this next compound?
Exercise: Please give the measured AUC(0-t) for this compound: CN(C)C(=O)Cn1ccc2nc(N[C@H]3CC[C@@H](Oc4nc(N5CCOCC5)cc5ncccc45)CC3)ncc21 [Compound 86]
Solution: 0.0716

----------
Target: DNA-PK (Homo sapiens, UniProt P78527)
Construct: purchased Invitrogen PR9107A
Assay: DNA-PK Assay for Biochemical Enzymatic Inhibition (ADP Glo Kinase assay)
Details: DNA-PK enzyme, Table 1
Kindly supply the reported IC50 values for the records listed here.

NC(=O)N[C@H]1CC[C@@H](Oc2nc(N3CCOCC3)cc3ncccc23)CC1 = 1 to 10 nM
CCNC(=O)c1cnc2cc(N3CCOCC3)nc(O[C@H]3CC[C@@H](n4ccnc4)CC3)c2c1 = 10 to 150 nM
O=C(COc1cnc(N[C@H]2CC[C@@H](Oc3nc(N4CCOCC4)cc4ncccc34)CC2)nc1)N1CC(O)C1 = < 0.5 nM

Give measured IC50 for every item shown.
1. CN(C)CCOc1cnc(C(=O)N[C@H]2CC[C@@H](Oc3nc(N4CCOCC4)cc4ncccc34)CC2)nc1
2. Cn1ccnc1COc1cnc(N[C@H]2CC[C@@H](Oc3nc(N4CCOCC4)cc4ncccc34)CC2)nc1
3. CN(C)C(=O)COc1ccc(N[C@H]2CC[C@@H](Oc3nc(N4CCOCC4)cc4ncccc34)CC2)nn1
4. O=C(COc1cnc(N[C@H]2CC[C@@H](Oc3nc(N4CCOCC4)cc4ncccc34)CC2)nc1)N1CCSCC1

Solution:
1: 1 to 10 nM; 2: 0.5 to 1 nM; 3: 10 to 150 nM; 4: 0.5 to 1 nM

----------
Kindly supply the reported EC50 values for the records listed here.
Test system: pDNA-PK induction in HCT116 tumour spheroids
Assay: Multicellular tumour spheroid + radiation, pDNA-PK (ser2056) inhibition, immunohistochemical endpoint, HCT116
Assay type: cell-based
Conditions: Homo sapiens, HCT-116; 20 Gy, 2 hours following radiation, 20% O2; Example 9 Study 2; read-out: Spheroid Cell line: HCT116 Immunohistochemical endpoint pDNA-PK inhibition EC50

CCOC(=O)c1cnc(NC2CCOCC2)nc1N[C@H]1CC[C@@H](Oc2nc(N3CCOCC3)cc3ncccc23)CC1 [Compound 93] = 10 to 100 µM
O=C(Cn1c(=O)n(C2CCOCC2)c2nc(N[C@H]3CC[C@@H](Oc4nc(N5CCOCC5)cc5ncccc45)CC3)ncc21)N1CCOCC1 [Compound 98] = 0.01 to 0.5 µM
O=S(=O)(Nc1cnc2cc(N3CCOCC3)nc(O[C@H]3CC[C@@H](Nc4ncccn4)CC3)c2c1)C1CCC1 [Compound 191] = 10 to 100 µM
O=S(=O)(Nc1cnc2cc(N3CCOCC3)nc(O[C@H]3CC[C@@H](Nc4ncccn4)CC3)c2c1)C1CCCC1 [Compound 190] = 10 to 100 µM
O=C(O)c1cnc2cc(N3CCOCC3)nc(O[C@H]3CC[C@@H](Nc4ncccn4)CC3)c2c1 [Compound 183] = 1 to 10 µM

Give measured EC50 for every item shown.
1. COc1ccc(NC(=O)N[C@H]2CC[C@@H](Oc3nc(N4CCOCC4)cc4ncccc34)CC2)cc1 [Compound 152]
2. CONC(=O)COc1cnc(N[C@H]2CC[C@@H](Oc3nc(N4CCOCC4)cc4ncccc34)CC2)nc1 [Compound 72]

Solution:
1 to 10 µM
0.5 to 1 µM

----------
Biological target: DNA-PK (Homo sapiens, UniProt P78527)
Construct: purchased Invitrogen PR9107A
Assay: DNA-PK Assay for Biochemical Enzymatic Inhibition (ADP Glo Kinase assay)
Conditions: DNA-PK enzyme, Table 1
pIC50: −log10 of the molar value.
READOUT NAME: pIC50

Known pIC50 results, listed for orientation:
c1cnc2cc(N3CCOCC3)nc(O[C@H]3CC[C@@H](Nc4ncc(OCc5ncco5)cn4)CC3)c2c1 = 9.00 to 9.30
CCOC(=O)c1cnc2cc(N3CCOCC3)nc(O[C@H]3CC[C@@H](Nc4ncc(OCC(=O)N(C)C)cn4)CC3)c2c1 = 8.00 to 9.00
CN1CCN(CCOc2cnc(N[C@H]3CC[C@@H](Oc4nc(N5CCOCC5)cc5ncccc45)CC3)nc2)CC1 = > 9.30
Cc1noc(C)c1-c1cnc2cc(N3CCOCC3)nc(O[C@H]3CC[C@@H](n4ccnc4)CC3)c2c1 = 8.00 to 9.00
CC1(C)CN(c2cc3ncccc3c(O[C@H]3CC[C@@H](n4ccnc4)CC3)n2)CC(C)(C)O1 = 6.82 to 8.00

Give measured pIC50 for every item shown.
1. CS(=O)(=O)c1cnc2cc(N3CCOCC3)nc(O[C@H]3CC[C@@H](Nc4ncc(OCC(=O)N5CCOCC5)cn4)CC3)c2c1 [Compound 204a]
2. Cn1cc([C@H]2CC[C@@H](Oc3nc(N4CCOCC4)cc4ncc(OCCN5CCOCC5)cc34)CC2)cn1

Solution:
8.00 to 9.00
6.82 to 8.00

----------
Test: Microsomal Stability Assay, mouse liver microsomes
Format: in vitro ADME
Details: male, CD-1, pH 7.4; mouse liver microsomes 0.1 mg/mL, 0.1 uM compound
Kindly supply the reported microsomal CLint at 0.1 uM values for the records listed here.

NC(=O)N[C@H]1CC[C@@H](Oc2nc(N3CCOCC3)cc3ncccc23)CC1 [Compound 15] = > 116 µL/min/mg
CN(C)C(=O)COc1cnc(C(=O)N[C@H]2CC[C@@H](Oc3nc(N4CCOCC4)cc4ncccc34)CC2)nc1 [Compound 125] = < 116 µL/min/mg
CONC(=O)c1cnc2cc(N3CCOCC3)nc(O[C@H]3CC[C@@H](n4ccnc4)CC3)c2c1 [Compound 171] = < 116 µL/min/mg
c1ccc(-c2cnc3cc(N4CCOCC4)nc(O[C@H]4CC[C@@H](n5ccnc5)CC4)c3c2)cc1 [Compound 156] = > 116 µL/min/mg
CON(C)C(=O)COc1cnc(N[C@H]2CC[C@@H](Oc3nc(N4CCOCC4)cc4ncccc34)CC2)nc1 [Compound 58] = > 116 µL/min/mg
CN(C)C(=O)COc1ccc(C(=O)N[C@H]2CC[C@@H](Oc3nc(N4CCOCC4)cc4ncccc34)CC2)cn1 [Compound 117] = < 116 µL/min/mg

Give measured microsomal CLint at 0.1 uM for every item shown.
1. O=C(O)c1cnc2cc(N3CCOCC3)nc(O[C@H]3CC[C@@H](Nc4ncccn4)CC3)c2c1 [Compound 183]
2. CN(C)C(=O)Cn1ccc2nc(N[C@H]3CC[C@@H](Oc4nc(N5CCOCC5)cc5ncccc45)CC3)ncc21 [Compound 86]
3. CN(C)C(=O)Cn1c(=O)n(C2CCOCC2)c2nc(N[C@H]3CC[C@@H](Oc4nc(N5CCOCC5)cc5ncccc45)CC3)ncc21 [Compound 97]
4. O=C(NO)c1cnc2cc(N3CCOCC3)nc(O[C@H]3CC[C@@H](n4ccnc4)CC3)c2c1 [Compound 172]

Solution:
["< 116 µL/min/mg", "< 116 µL/min/mg", "< 116 µL/min/mg", "< 116 µL/min/mg"]

Cited source: patent US20240239790A1
